- tgt: T1, PDLoneECDHisCtag (human, UniProt Q9NZQ7 19-238)
- T1 construct: Expressed in HEK-293F cells; theoretical molecular weight 29 kDa; also called recombinant human PD-L1 ECD; human PD-L1 (BLI); not shown: C-terminal His-tag; C-tag
- assayOverview: BLI cross-block, second antibody on PDLoneECDHisCtag held by immobilised 321; bold = blocking
metricName: association response of the second antibody (nm)

binder="IgG1-511-LC33S-FEAR (antibody, V domains shown) VH: QVQLVQSGSELKKPGASVMVSCKASGYTFTSYVMNWVRQAPGQGLEWMGWINSYTGNPTSAQGFTGRFVFSFDTSVNTAYLQISSLKAEDTAVYYCARGYCTSTSCYLDYWGQGTLVTVSS VL: SYELTQPPSVSVSPGHTARITCSGDALPKKYASWFQQKSGQAPVLVIYEDSKRPSGIPERFSGSTSGTMATLTISGAQVEDETDYYCYSADTSGTHRVFGGGTKLTVLG" unitofmeasure=nm obsvalue=0
binder="IgG1-547-FEAR (antibody, V domains shown) VH: EVQLLEPGGGLVQPGGSLRLSCEASGSTFSTYAMSWVRQAPGKGLEWVSGFSGSGGFTFYADSVRGRFTISRDSSKNTLFLQMSSLRAEDTAVYYCAIPARGYNYGSFQHWGQGTLVTVSS VL: SYVLTQPPSVSVAPGQTARITCGGNNIGSKSVHWYQQKPGQAPVLVVYDDNDRPSGLPERFSGSNSGNTATLTISRVEAGDEADYYCQVWDSSSDHVVFGGGTKLTVLG" unitofmeasure=nm obsvalue=0
binder="IgG1-338-FEAR (antibody, V domains shown) VH: EVQVVESGGGLVQPGGSLRLSCAASGFTFSRFWMSWVRQAPGKGLEWVANIKQDGGEKYYVDSVKGRFTISRDNAKNSLYLQMNSLRGEDTAVYYCARDDNWNGHFDYWGQGTLVTVSS VL: DIQMTQSPSTLSASVGDRVTITCRASQSISSWLAWYQQKPGKAPNLLIYKASSLESGVPSRFSGSGSGTEFTLTISSLQPDDFATYYCQQYYGSYITFGQGTRLEIKR" unitofmeasure=nm obsvalue=0

Data origin: patent US20200239579A1
